TESTED TARGET: BpsCA-γ
Construct: gene BpsCA-gamma
Assay type: biochemical, Burkholderia pseudomallei
APPLIED CONDITIONS: CO2 1.7-17 mM; buffer pH for γ-CA not stated; 20 mM Na2SO4; 15 min preincubation, room temperature
MEASURED METRIC: Ki (nM)
# value in nM; strip the unit string

Q) Dear colleague, please send me the reported Ki for NS(=O)(=O)c1ccc(NC(=O)C[Se]c2ccccc2)cc1 [7a] when you can.
A) 304

====

TESTED TARGET: VchCA-β (Vibrio cholerae)
Construct: gene can
ASSAY TEXT: biochemical
The following compounds are shown together with reported pKi values.
pKi here is simply -log10 of the concentration when that concentration is written in mol/L.

// known answers, use as guide
> print(dat)
                               smiles.entry  measured.metric  meas.value
1   NS(=O)(=O)c1ccc(NC(=O)C[Se]c2ccccc2)cc1              pKi        7.02
2  COc1ccc([Se]CC(=O)Nc2ccc([Se]Cc3ccc(S(N)(=O)=O)cc3)cc2)cc1              pKi        7.08

Next compound, pKi to be filled in.
Q) Dear colleague, please send me the reported pKi for `COc1ccc([Se]CC(=O)NCCc2ccc(S(N)(=O)=O)cc2)cc1` when you can.
A) 7.07

====

TESTED TARGET: BpsCA-γ
Construct: gene BpsCA-gamma
Type: biochemical, Burkholderia pseudomallei
MEASURED METRIC: Ki

Q) Dear colleague, please send me the reported Ki for CC(O)CSCC(=O)Nc1ccc(S(N)(=O)=O)cc1 (stereo not shown) [3e] when you can.
A) 322 nM

====

TESTED TARGET: VchCA-β (Vibrio cholerae, UniProt A0A086SLX8)
Construct: gene can
Sequence (A0A086SLX8 1-222): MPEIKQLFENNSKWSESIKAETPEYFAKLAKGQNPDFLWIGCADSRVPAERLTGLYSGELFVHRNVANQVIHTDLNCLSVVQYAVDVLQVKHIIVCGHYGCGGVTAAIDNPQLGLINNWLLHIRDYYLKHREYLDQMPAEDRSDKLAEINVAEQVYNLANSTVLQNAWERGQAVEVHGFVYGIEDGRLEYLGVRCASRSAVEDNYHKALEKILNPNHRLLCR
ASSAY TEXT: biochemical
APPLIED CONDITIONS: read-out: VchCA-β; inhibitor
MEASURED METRIC: Ki (µM)
# value in µM; strip the unit string

Q) Dear colleague, please send me the reported Ki for `Cc1ccccc1[Se]CC(=O)Nc1ccc(S(N)(=O)=O)cc1` when you can.
A) 6.21

====

TESTED TARGET: StCA2-β
Construct: recombinant, obtained in-house; construct not described
ASSAY TEXT: stopped-flow CO2 hydration assay
APPLIED CONDITIONS: CO2 1.7-17 mM; pH 8.3 TRIS; 20 mM Na2SO4; 15 min preincubation, room temperature
The following molecules are shown together with reported pKi values.
pKi here is simply -log10 of the concentration when that concentration is written in mol/L.

// known answers, use as guide
> print(dat)
                                   molecule  measured.metric  meas.value
1  NS(=O)(=O)c1ccc(C[Se]c2ccc(NC(=O)CSc3ccc(Br)cc3)cc2)cc1              pKi        8.09
2  C=C(C)[C@H]1CCC(C)(O)C([Se]CC(=O)NCCc2ccc(S(N)(=O)=O)cc2)C1 (stereo partly drawn)              pKi        8.05

Next molecule, pKi to be filled in.
Q) Dear colleague, please send me the reported pKi for `COc1ccc([Se]CC(=O)Nc2ccc([Se]Cc3ccc(S(N)(=O)=O)cc3)cc2)cc1` when you can.
A) 8.12

Entry source: paper PMC7014678
